assay system: menin/MLL (terbium chelate-labeled menin, FITC-MBM1 peptide) (Homo sapiens, UniProt O00255, T541A)
Construct: Menin (a.a 1-610-6xhis tag, 2.3 mg/mL in 20 mM Hepes)
Sequence (O00255 with tags, fused parts or gaps T541A): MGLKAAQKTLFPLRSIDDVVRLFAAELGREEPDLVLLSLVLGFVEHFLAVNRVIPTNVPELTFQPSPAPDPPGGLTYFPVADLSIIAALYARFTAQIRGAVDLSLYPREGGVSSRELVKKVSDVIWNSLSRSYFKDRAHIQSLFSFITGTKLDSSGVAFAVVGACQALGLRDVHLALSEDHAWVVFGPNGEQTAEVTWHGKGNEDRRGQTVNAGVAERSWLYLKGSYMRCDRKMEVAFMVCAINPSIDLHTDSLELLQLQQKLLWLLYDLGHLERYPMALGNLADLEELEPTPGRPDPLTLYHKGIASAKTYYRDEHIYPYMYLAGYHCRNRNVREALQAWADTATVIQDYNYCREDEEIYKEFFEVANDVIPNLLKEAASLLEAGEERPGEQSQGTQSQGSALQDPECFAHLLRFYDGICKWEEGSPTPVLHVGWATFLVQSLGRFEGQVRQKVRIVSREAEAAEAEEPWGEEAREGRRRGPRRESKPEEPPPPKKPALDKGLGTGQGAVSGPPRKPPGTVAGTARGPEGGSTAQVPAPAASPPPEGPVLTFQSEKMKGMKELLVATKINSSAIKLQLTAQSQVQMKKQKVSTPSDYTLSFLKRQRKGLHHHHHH
test: Menin/MLL homogenous time-resolved fluorescence (HTRF) assay
applied conditions: 30 min incubation
assay readout: IC50

As a guide, the following entries are already answered.
INSERT INTO results (compound, recorded_value) VALUES
  ('CC(=O)N1CCCC(N2CC[C@H](Cc3cn(-c4ccc(F)cc4C(=O)N(C)C(C)C)c4cncc(C)c34)C2)CC1 (mixture of isomers) [Compound 222]', '0.103 nM'),
  ('CC(=O)N1CCC([C@@H](C)N2CC[C@H](Cc3cn(-c4ccc(F)cc4[S@@](=N)(=O)C(C)C)c4cncc(C)c34)C2)CC1 (single isomer, unassigned) [Compound 233a]', '0.171 nM');

Q: Report measured IC50; entry is Cc1cncc2c1c(C[C@@H]1CCN(CC3CCN(C(=O)C(C)C)CC3)C1)cn2-c1ccc(F)cc1C(=O)N1CCC[C@H]1CO [Compound 328]
Result: 0.101 nM

Q: Report measured IC50; entry is CC(=O)N1CC[C@H](CN2CCC(Cc3cn(-c4ccc(F)cc4C(=O)N(C)C(C)C)c4cncc(C)c34)CC2)C1 [Compound 113]
Result: 0.642 nM

Q: Report measured IC50; entry is COCC(=O)N1CCC(C(C)N2CCC(Cc3cn(-c4ccc(F)cc4C(=O)N(C)C(C)C)c4cncc(C)c34)C2)CC1 (single isomer, unassigned) [Compound 117b]
Result: 0.27 nM

Q: Report measured IC50; entry is Cc1cncc2c1c(CC1CN(C[C@H]3CCOC3)C1)cn2-c1ccc(F)cc1C(=O)N(C)C(C)C (single isomer, unassigned) [Compound 191a]
Result: 0.056 nM

Q: Report measured IC50; entry is CC(=O)N1C[C@@H]2CN(CCCC(C(C)C)N3CC[C@@H](Cc4cn(-c5ccc(F)cc5C(=O)N(C)C(C)C)c5cncc(C)c45)C3)C[C@H]2C1 (mixture of isomers) [Compound 12]
Result: 0.018 nM

Q: Report measured IC50; entry is Cc1cncc2c1c(C[C@@H]1CCN(CC3CCCCC3)C1)cn2-c1ccc(F)cc1C(=O)N(C)C(C)C [Compound 193]
Result: 0.071 nM

Q: Report measured IC50; entry is CC(=O)N1CCC(CN2CC[C@H](Cc3cn(-c4ccc(F)cc4S4(=O)=NCCC4)c4cncc(C)c34)C2)CC1 (mixture of isomers) [Compound 224]
Result: 8.66 nM

Q: Report measured IC50; entry is CC(=O)N1CCC(CN2CC[C@@H](Cc3cn(-c4ccc(F)cc4C(=O)N(C(C)C)C(C)C)c4cncc(C)c34)C2)CC1 [Compound 258]
Result: 0.021 nM

Q: Report measured IC50; entry is CC(=O)N1CCC(N2CC[C@H](Cc3cn(-c4ccc(F)cc4C(=O)N(C)C(C)C)c4cncc(C)c34)C2)C(C)C1 (single isomer, unassigned) [Compound 137b]
Result: ~0.34 nM

Q: Report measured IC50; entry is CC(=O)N1CCC(CN2CCC(Cc3cn(-c4ccc(F)cc4C(=O)N(C)C(C)C)c4cncc(C)c34)C2C)CC1 (stereo not drawn) [Compound 229]
Result: 0.235 nM

src = patent US20230250096A1
